Entry source: paper PMC9482650

molecular target: FRMPD2_2, Q68DX3; assay: holdup assay; parameters: key: below the threshold = too weak to quantify, mostly under pKd 3.1 to 4; conditions: plain residues with an end cap or a label only (N-terminal biotin on a linker: ttds)
Sequence (Q68DX3 944-1038): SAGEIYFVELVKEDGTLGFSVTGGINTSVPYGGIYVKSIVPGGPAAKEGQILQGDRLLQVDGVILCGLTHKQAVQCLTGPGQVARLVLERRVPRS

- binder: "FHPLGADSQV [SLC2A1, P11166]"
  pKd: "below the threshold"
- binder: "NDPAWDETNL [ARHGEF7, Q14155;Q14155-1]"
  pKd: "below the threshold"
- binder: "DKDPHSETAL [TMIGD1, Q6UXZ0]"
  pKd: "below the threshold"
